- target.under.test: UniProtKB Q9NR97
- Sequence (Q9NR97 27-1041): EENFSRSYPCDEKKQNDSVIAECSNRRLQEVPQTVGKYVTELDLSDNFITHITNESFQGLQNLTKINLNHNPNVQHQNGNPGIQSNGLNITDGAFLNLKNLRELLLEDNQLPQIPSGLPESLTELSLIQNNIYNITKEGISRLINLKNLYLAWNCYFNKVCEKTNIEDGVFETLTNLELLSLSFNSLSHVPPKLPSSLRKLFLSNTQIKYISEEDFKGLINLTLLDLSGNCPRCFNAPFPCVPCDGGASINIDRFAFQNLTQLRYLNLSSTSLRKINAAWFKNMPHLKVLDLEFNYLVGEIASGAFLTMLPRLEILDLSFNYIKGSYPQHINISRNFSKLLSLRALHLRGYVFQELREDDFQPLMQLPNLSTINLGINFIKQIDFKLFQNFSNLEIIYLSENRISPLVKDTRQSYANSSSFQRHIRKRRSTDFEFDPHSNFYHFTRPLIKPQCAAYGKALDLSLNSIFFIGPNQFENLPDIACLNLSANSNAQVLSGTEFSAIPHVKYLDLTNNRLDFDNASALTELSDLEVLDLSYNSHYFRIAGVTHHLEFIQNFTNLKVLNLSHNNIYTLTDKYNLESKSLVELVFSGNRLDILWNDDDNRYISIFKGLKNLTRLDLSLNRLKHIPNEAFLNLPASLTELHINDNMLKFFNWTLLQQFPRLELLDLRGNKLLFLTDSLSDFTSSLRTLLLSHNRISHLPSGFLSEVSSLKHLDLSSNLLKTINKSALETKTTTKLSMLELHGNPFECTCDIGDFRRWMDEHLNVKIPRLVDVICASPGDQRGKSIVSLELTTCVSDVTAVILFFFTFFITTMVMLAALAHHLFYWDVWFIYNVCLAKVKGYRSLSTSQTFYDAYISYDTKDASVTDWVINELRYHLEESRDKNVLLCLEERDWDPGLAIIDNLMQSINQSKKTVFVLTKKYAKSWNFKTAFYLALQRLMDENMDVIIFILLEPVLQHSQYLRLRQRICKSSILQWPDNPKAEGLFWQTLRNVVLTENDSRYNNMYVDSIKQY
- procedure.text: Human TLR8 Reporter Assay
- measurement.setup: HEK-Blue hTLR8 cells, 16 hours, normalized to tl8-506 (1 μM) and DMSO
pEC50: −log10 of the molar value.
measured.property: pEC50

Please review the following examples before continuing.
CCCCNc1nc(N)nc2cn(Cc3ccc(CN4CC(CN5C(=O)C=CC5=O)C4)cc3OC)nc12 | 5.48
CCCCNc1nc(N)nc2cn(Cc3ccc(C(C)N(C)C)cc3OC)nc12 (stereo not drawn) [Compound 220] | 6.77
CCC[C@H](CO)Nc1nc(N)nc2cn(Cc3ccccc3OC)nc12 | 4.55
C=CCN(C)Cc1nc(Cn2cc3nc(N)nc(NCCCC)c3n2)c(C)o1 | 5.39
CCCCNc1nc(N)nc2cn(Cc3ncnn3C)nc12 | 5.08

1: CCCCNc1nc(N)nc2cn(Cc3ccc(N)cc3OC)nc12
2: CCC[C@@H](CO)Nc1nc(N)nc2cn(Cc3c(OC)cc(CN(C)CCN)cc3OC)nc12
Response body: label of entry with the larger pEC50; valid values 1 , 2 . Please identify the chosen entry by its label.
1

1: C=CCN(C)Cc1cc(OC)c(Cn2cc3nc(N)nc(N[C@H](CO)CCC)c3n2)c(OC)c1
2: CCCC(C)Nc1nc(N)nc2cn(Cc3c(OC)cccc3OC)nc12 (stereo not drawn)
Response body: label of entry with the larger pEC50; valid values 1 , 2 . Please identify the chosen entry by its label.
1
(1: 7.04, 2: 6.54)
